procedure summary: Chemical stability of the compound in aqueous buffer with less than 30% organic solvent assessed as compound recovery at pH 7.4 measured over 16 hrs by HPLC analysis
Type: physicochemical
condition description: read-out: Drug recovery
measured endpoint: remaining at 16 h (%)

• CC1=C[C@]23C(=O)[C@@H](C=C(CO)[C@@H](O)[C@]2(O)[C@H]1OC(=O)c1ccccc1C(C)C)[C@H]1[C@@H](C[C@H]3C)C1(C)C = 70
• CC(=O)Nc1cccc(C)c1C(=O)O[C@H]1C(C)=C[C@]23C(=O)[C@@H](C=C(CO)[C@@H](O)[C@]12O)[C@H]1[C@@H](C[C@H]3C)C1(C)C = 82
• CNc1cccc(F)c1C(=O)O[C@H]1C(C)=C[C@]23C(=O)[C@@H](C=C(CO)[C@@H](O)[C@]12O)[C@H]1[C@@H](C[C@H]3C)C1(C)C = 74
• CC1=C[C@]23C(=O)[C@@H](C=C(CO)[C@@H](O)[C@]2(O)[C@H]1OC(=O)c1ccccc1OC(C)C)[C@H]1[C@@H](C[C@H]3C)C1(C)C = 65
• COc1ccccc1C(=O)O[C@H]1C(C)=C[C@]23C(=O)[C@@H](C=C(CO)[C@@H](O)[C@]12O)[C@H]1[C@@H](C[C@H]3C)C1(C)C = 70
• CC1=C[C@]23C(=O)[C@@H](C=C(CO)[C@@H](O)[C@]2(O)[C@H]1OC(=O)c1ccccc1Nc1ccccc1)[C@H]1[C@@H](C[C@H]3C)C1(C)C = 58
• CC1=C[C@]23C(=O)[C@@H](C=C(CO)[C@@H](O)[C@]2(O)[C@H]1OC(=O)c1ccccc1-c1ccccc1)[C@H]1[C@@H](C[C@H]3C)C1(C)C = 77
• CC1=C[C@]23C(=O)[C@@H](C=C(CO)[C@@H](O)[C@]2(O)[C@H]1OC(=O)c1c(N)cccc1F)[C@H]1[C@@H](C[C@H]3C)C1(C)C = 66
• CC1=C[C@]23C(=O)[C@@H](C=C(CO)[C@@H](O)[C@]2(O)[C@H]1OC(=O)c1ccccc1C)[C@H]1[C@@H](C[C@H]3C)C1(C)C = 73
• CC1=C[C@]23C(=O)[C@@H](C=C(CO)[C@@H](O)[C@]2(O)[C@H]1OC(=O)c1ccccc1Br)[C@H]1[C@@H](C[C@H]3C)C1(C)C = 44
• CNc1ccccc1C(=O)O[C@H]1C(C)=C[C@]23C(=O)[C@@H](C=C(CO)[C@@H](O)[C@]12O)[C@H]1[C@@H](C[C@H]3C)C1(C)C = 68
• CC1=C[C@]23C(=O)[C@@H](C=C(CO)[C@@H](O)[C@]2(O)[C@H]1OC(=O)c1ccccc1NCc1ccccc1)[C@H]1[C@@H](C[C@H]3C)C1(C)C = 65

----------
System: Keratinocyte
procedure summary: Induction of proimflammatory activity in human primary epidermal keratinocytes assessed as TNFalpha release after 6 hrs relative to ingenol 3-angelate
Format: functional
# Emax annotations
measured endpoint: Emax (%)

• CC1=C[C@]23C(=O)[C@@H](C=C(CO)[C@@H](O)[C@]2(O)[C@H]1OC(=O)c1ccccc1)[C@H]1[C@@H](C[C@H]3C)C1(C)C = 60
• CC1=C[C@]23C(=O)[C@@H](C=C(CO)[C@@H](O)[C@]2(O)[C@H]1OC(=O)c1c(C)cccc1Cl)[C@H]1[C@@H](C[C@H]3C)C1(C)C = 52
• CC1=C[C@]23C(=O)[C@@H](C=C(CO)[C@@H](O)[C@]2(O)[C@H]1OC(=O)c1ccccc1NCc1ccccc1)[C@H]1[C@@H](C[C@H]3C)C1(C)C = 128
• CNc1cccc(C)c1C(=O)O[C@H]1C(C)=C[C@]23C(=O)[C@@H](C=C(CO)[C@@H](O)[C@]12O)[C@H]1[C@@H](C[C@H]3C)C1(C)C = 143
• CNc1cccc(F)c1C(=O)O[C@H]1C(C)=C[C@]23C(=O)[C@@H](C=C(CO)[C@@H](O)[C@]12O)[C@H]1[C@@H](C[C@H]3C)C1(C)C = 174
• CC1=C[C@]23C(=O)[C@@H](C=C(CO)[C@@H](O)[C@]2(O)[C@H]1OC(=O)c1c(C)cccc1N)[C@H]1[C@@H](C[C@H]3C)C1(C)C = 108
• CC1=C[C@]23C(=O)[C@@H](C=C(CO)[C@@H](O)[C@]2(O)[C@H]1OC(=O)c1c(C)cccc1O)[C@H]1[C@@H](C[C@H]3C)C1(C)C = 156
• COc1cccc(N)c1C(=O)O[C@H]1C(C)=C[C@]23C(=O)[C@@H](C=C(CO)[C@@H](O)[C@]12O)[C@H]1[C@@H](C[C@H]3C)C1(C)C = 83
• COc1cccc(OC)c1C(=O)O[C@H]1C(C)=C[C@]23C(=O)[C@@H](C=C(CO)[C@@H](O)[C@]12O)[C@H]1[C@@H](C[C@H]3C)C1(C)C = 113
• CC1=C[C@]23C(=O)[C@@H](C=C(CO)[C@@H](O)[C@]2(O)[C@H]1OC(=O)c1c(N)cccc1F)[C@H]1[C@@H](C[C@H]3C)C1(C)C = 104
• CC1=C[C@]23C(=O)[C@@H](C=C(CO)[C@@H](O)[C@]2(O)[C@H]1OC(=O)c1c(C)cccc1NCc1ccccc1)[C@H]1[C@@H](C[C@H]3C)C1(C)C = 126
• CC1=C[C@]23C(=O)[C@@H](C=C(CO)[C@@H](O)[C@]2(O)[C@H]1OC(=O)c1ccccc1Nc1ccccc1)[C@H]1[C@@H](C[C@H]3C)C1(C)C = 120
• CCCCCCCCCCCCCCCCNc1ccccc1C(=O)O[C@H]1C(C)=C[C@]23C(=O)[C@@H](C=C(CO)[C@@H](O)[C@]12O)[C@H]1[C@@H](C[C@H]3C)C1(C)C = 120
• CC1=C[C@]23C(=O)[C@@H](C=C(CO)[C@@H](O)[C@]2(O)[C@H]1OC(=O)c1c(Cl)cccc1Cl)[C@H]1[C@@H](C[C@H]3C)C1(C)C = 42
• CC1=C[C@]23C(=O)[C@@H](C=C(CO)[C@@H](O)[C@]2(O)[C@H]1OC(=O)c1ccccc1OC(C)C)[C@H]1[C@@H](C[C@H]3C)C1(C)C = 101
• COc1ccccc1C(=O)O[C@H]1C(C)=C[C@]23C(=O)[C@@H](C=C(CO)[C@@H](O)[C@]12O)[C@H]1[C@@H](C[C@H]3C)C1(C)C = 100
• CNc1cccc(Cl)c1C(=O)O[C@H]1C(C)=C[C@]23C(=O)[C@@H](C=C(CO)[C@@H](O)[C@]12O)[C@H]1[C@@H](C[C@H]3C)C1(C)C = 97
• CNc1ccccc1C(=O)O[C@H]1C(C)=C[C@]23C(=O)[C@@H](C=C(CO)[C@@H](O)[C@]12O)[C@H]1[C@@H](C[C@H]3C)C1(C)C = 134
• CC1=C[C@]23C(=O)[C@@H](C=C(CO)[C@@H](O)[C@]2(O)[C@H]1OC(=O)c1ccccc1C)[C@H]1[C@@H](C[C@H]3C)C1(C)C = 64
• CCCCCCCCCCCCNc1ccccc1C(=O)O[C@H]1C(C)=C[C@]23C(=O)[C@@H](C=C(CO)[C@@H](O)[C@]12O)[C@H]1[C@@H](C[C@H]3C)C1(C)C = 150
• CC1=C[C@]23C(=O)[C@@H](C=C(CO)[C@@H](O)[C@]2(O)[C@H]1OC(=O)c1c(C)cccc1C)[C@H]1[C@@H](C[C@H]3C)C1(C)C = 61
• CC1=C[C@]23C(=O)[C@@H](C=C(CO)[C@@H](O)[C@]2(O)[C@H]1OC(=O)c1ccccc1-c1ccccc1)[C@H]1[C@@H](C[C@H]3C)C1(C)C = 91
• CC1=C[C@]23C(=O)[C@@H](C=C(CO)[C@@H](O)[C@]2(O)[C@H]1OC(=O)c1ccccc1C(C)C)[C@H]1[C@@H](C[C@H]3C)C1(C)C = 96
• CC1=C[C@]23C(=O)[C@@H](C=C(CO)[C@@H](O)[C@]2(O)[C@H]1OC(=O)c1c(N)cccc1Cl)[C@H]1[C@@H](C[C@H]3C)C1(C)C = 108

----------
target entity: Protein kinase C delta type (Homo sapiens)
Sequence (Q05655 whole entry): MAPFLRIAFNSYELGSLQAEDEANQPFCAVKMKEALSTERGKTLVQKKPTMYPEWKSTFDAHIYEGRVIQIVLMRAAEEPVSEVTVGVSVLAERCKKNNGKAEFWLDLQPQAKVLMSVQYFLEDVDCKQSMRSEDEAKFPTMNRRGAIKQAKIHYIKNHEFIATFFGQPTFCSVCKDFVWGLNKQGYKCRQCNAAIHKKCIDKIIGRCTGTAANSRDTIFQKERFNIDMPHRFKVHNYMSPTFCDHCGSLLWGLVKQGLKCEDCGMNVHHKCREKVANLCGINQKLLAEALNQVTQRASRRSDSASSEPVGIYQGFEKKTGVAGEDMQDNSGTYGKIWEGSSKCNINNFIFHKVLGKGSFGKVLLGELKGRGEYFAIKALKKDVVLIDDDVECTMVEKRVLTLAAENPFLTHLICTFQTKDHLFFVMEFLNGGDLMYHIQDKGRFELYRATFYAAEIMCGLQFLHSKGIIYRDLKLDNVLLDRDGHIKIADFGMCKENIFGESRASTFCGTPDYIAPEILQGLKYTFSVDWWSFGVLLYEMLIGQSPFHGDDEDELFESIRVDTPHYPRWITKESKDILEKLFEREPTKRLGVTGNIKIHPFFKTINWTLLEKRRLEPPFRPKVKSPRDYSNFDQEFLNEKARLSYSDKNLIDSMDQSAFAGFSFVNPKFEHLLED
procedure summary: Activation of PKCdelta (unknown origin) after 40 mins
measured endpoint: EC50

• CC1=C[C@]23C(=O)[C@@H](C=C(CO)[C@@H](O)[C@]2(O)[C@H]1OC(=O)c1c(C)cccc1O)[C@H]1[C@@H](C[C@H]3C)C1(C)C = 13.4 nM
• CC1=C[C@]23C(=O)[C@@H](C=C(CO)[C@@H](O)[C@]2(O)[C@H]1OC(=O)c1c(C)cccc1C)[C@H]1[C@@H](C[C@H]3C)C1(C)C = 10.8 nM
• CC1=C[C@]23C(=O)[C@@H](C=C(CO)[C@@H](O)[C@]2(O)[C@H]1OC(=O)c1c(C)cccc1N)[C@H]1[C@@H](C[C@H]3C)C1(C)C = 8 nM

These data points were gathered from ChEMBL document CHEMBL3102768.
